All figures here come from PubChem BioAssay (NCI).

Exercise: state measured growth inhibition for each of the compounds provided.
assay: NCI Yeast Anticancer Drug Screen. Data for the mlh1 rad18 strain (AID 175); settings: S. cerevisiae mlh1 rad18 strain growth inhibition; at 50.0 µM; active compounds read high
About 79,000 compounds went through this panel and 15% of them were active in at least one assay; those are over-represented in the sample as a whole.
Numbers only, in %.

For orientation, consider the following solved cases.
compound=C1CC[CH]([Sn]([CH]2CCCCC2)[CH]2CCCCC2)CC1.C1CC[CH]([Sn]([CH]2CCCCC2)[CH]2CCCCC2)CC1 measure="growth inhibition" value=87.9
compound=CCC(C)(c1ccc(O)cc1)c1ccc(O)cc1 measure="growth inhibition" value=98.7

Required: growth inhibition, one value per compound below.
1. CCOC(=O)C1=C(C)NC(=O)NC1c1ccc(N(CCCl)CCCl)cc1Cl (stereo not given)
2. O=[N+]([O-])c1ccc(C=Cc2ccccc2)cc1.[C-]#[O+].[C-]#[O+].[C-]#[O+].[Cr]
3. COC(=O)c1c(C)ccc2c(O)c3c(cc12)C(=O)c1c2c(cc(O)c1C3=O)C1(C)OC(C)(O2)C(O)C(N(C)C)C1O (stereo not given)
4. Cc1cc(N(CCCl)CCCl)ccc1CN1CCCN(Cc2ccc(N(CCCl)CCCl)cc2C)C1c1ccc(N(CCCl)CCCl)cc1C
5. CCOC(=S)S

Return:
1: 78.5; 2: 62.1; 3: 96.5; 4: 98.6; 5: 99.2

Required: growth inhibition, one value per compound below.
1. CCC[CH2][Sn]1([CH2]CCC)[O]C(=O)c2cc(C)ccc2[O]1
2. O=C1C(Br)=CC2(C=C1Br)CCNc1c(O)c3c4c(c12)=NCCC=4C=N3
3. Cc1ccc(S(=O)(=O)OC2CCC3C4CC=C5CC(SC(=N)N)CCC5(C)C4CCC23C)cc1 (stereo not given)

Return:
1: 89; 2: 57.5; 3: 66.3

Required: growth inhibition, one value per compound below.
1. O=C1C(=O)c2cccc3cccc1c23
2. O=[N+]([O-])O.[NH-]C1CCCCC1[NH-].[NH-]C1CCCCC1[NH-].[NH-]C1CCCCC1[NH-].[OH-].[OH-].[OH-].[Pt+4].[Pt+4].[Pt+4] (stereo not given)
3. C[n+]1c(/C=C/c2ccc(O)c(O)c2)[se]c2ccccc21

Return:
1. 22.9
2. 28.6
3. 77

----------
experiment: NCI Yeast Anticancer Drug Screen. Data for the bub3 strain (AID 167); conditions: S. cerevisiae bub3 mutant strain, at 50.0 µM
This is part of a sample that, as a whole, favours compounds with a hit. Of some 79,000 tested, about 15% had one in any assay. Calls of active or inactive are those of the source. No stated cut-off is given here; in the data, active means growth inhibition above about 70%; inactive means the rest.
Assign a class; possible classes are 1.0 for active, 0.0 for inactive

compound=CN(C)c1ccc(/C=C/c2cc[n+]3ccsc3n2)cc1 group=1.0
compound="COc1cccc2c1C(=O)c1c(O)c3c(c(O)c1C2=O)C[C@@](O)(/C(C)=N\\O)C[C@@H]3OC1CC(N)C(O)C(C)O1 (stereo partly drawn)" group=0.0
compound=Nc1nc(-c2ccccc2)c(-c2ccccc2)[se]1 group=0.0
compound=NNc1ccccc1Cl group=1.0
compound=C[C@]12CC[C@H](O)CC1=CC[C@@H]1[C@@H]2CC[C@]2(C)C(=O)CC[C@@H]12 group=1.0
compound="C[N+](C)(C)CC1CCCC(C[N+](C)(C)C)C1=O (stereo not drawn)" group=1.0
compound=O=C(O)c1cc([N+](=O)[O-])c(Cl)c([N+](=O)[O-])c1Cl group=0.0
compound=CC[CH2][Sn]([Br])([Br])[CH2]CC group=1.0
compound="C=C(C)C(=O)OC1CCC2(C)C(CCC3C2CCC2(C)C(c4ccc(=O)oc4)CC4OC432)C1 (stereo not drawn)" group=1.0
compound="CCCCCCC1CC2(Cl)C(Cl)=C(Cl)C1(Cl)C2(Cl)Cl (stereo not drawn)" group=1.0

Enquiry: For this compound, state the assay outcome: [Br][Sn]([CH]1CCCCC1)([CH]1CCCCC1)[CH]1CCCCC1
Return: 1.0

Enquiry: For this compound, state the assay outcome: O=C(Nc1ccccc1)c1cc([N+](=O)[O-])ccc1O
Return: 1.0

Enquiry: For this compound, state the assay outcome: CC(CN1CCCCCCC1)C(C#N)(c1ccccc1)c1ccccc1 (stereo not drawn)
Return: 0.0

Enquiry: For this compound, state the assay outcome: COc1cc2ccccc2c2cc([N+](=O)[O-])oc12
Return: 0.0

Enquiry: For this compound, state the assay outcome: N.N.N.N.N.N#N.[Cl-].[Os+7]
Return: 0.0

Enquiry: For this compound, state the assay outcome: Nc1ccc(Cl)cc1C(=O)c1ccccc1
Return: 1.0

Enquiry: For this compound, state the assay outcome: Nc1ccc2cc(Br)ccc2c1
Return: 0.0

Enquiry: For this compound, state the assay outcome: CC(=O)OC1C2(CC3N4C(=O)C5(CO)SSC4(CC31O)C(=O)N5C)OC(C)C(C)(C)C2=O (stereo not drawn)
Return: 1.0
